study target: T1, ZFP SBS#306 (synthetic)
T1 chain: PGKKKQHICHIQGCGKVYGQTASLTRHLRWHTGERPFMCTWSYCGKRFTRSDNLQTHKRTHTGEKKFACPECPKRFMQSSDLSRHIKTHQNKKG
protocol: EMSA
recorded conditions: tags: MBP fusion
property measured: Kd (nM)

In [3]: df
Out[3]:
                                     binder  numeric_result
0  GCTTAGGCA (dsDNA) DNA 1: GCTTAGGCA DNA 2: TGCCTAAGC             280
